- targetUnderTest: T1, 4H3094-AA
- T1 chain: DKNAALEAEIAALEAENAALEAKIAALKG
- assayDetails: two-hybrid library CCmax;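 note: natural log of median RNA to DNA barcode read ratio; higher means stronger binding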
- testSettings: mean of both orientations
measuredAttribute: interaction score
Form rule: numeric answer, no unit written next to it.

The cases that follow already have their interaction score on record.
- binder: "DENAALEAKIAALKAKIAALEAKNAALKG [4H1384-AA]"
  interaction score: -0.731
- binder: "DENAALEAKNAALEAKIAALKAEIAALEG [4H1449-AA]"
  interaction score: -1.53

Below: the item to evaluate.
Qu. Fill in: interaction score of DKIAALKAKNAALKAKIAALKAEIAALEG [4H3049-AA] is ___
Ans. 1.63

These measurements were taken from paper PMC10397247.
